These measurements were taken from PubChem BioAssay AID2060499.

# Tested on: 777334-354-R2-J4-PDC tumor spheroids with HUVEC/MSC, viability
# assay.notes: Anticancer human tumor 777334-354-R2-J4-PDC patient-derived pancreatic adenocarcinoma cell line growth inhibition [GQUAD]
# condition.details: second compound 0.316 µM; first compound 0.00316 µM; stronger effect = lower value
Lab note: compare viability, T/C with 90%, writing YES if less and NO if equal or more.

Study these solved cases before continuing.
Cn1ncnc1[C@H]1c2n[nH]c(=O)c3cc(F)cc(c23)N[C@@H]1c1ccc(F)cc1 + Cc1cnc(CNC(=O)c2c(=O)c3ccc(N4CCCN(C)CC4)nc3n3c2sc2ccccc23)cn1: YES
CCc1c2c(nc3ccc(O)cc13)-c1cc3c(c(=O)n1C2)COC(=O)[C@]3(O)CC + Cc1[nH]c2ccc(F)cc2c1-c1nc2c3cccnc3c3ncccc3c2[nH]1: YES
CC[C@@]1(O)C(=O)OCc2c1cc1n(c2=O)Cc2cc3c(CN(C)C)c(O)ccc3nc2-1 + Cc1[nH]c2ccc(F)cc2c1-c1nc2c3cccnc3c3ncccc3c2[nH]1: NO
CC[C@@]1(O)C(=O)OCc2c1cc1n(c2=O)Cc2cc3c(CN(C)C)c(O)ccc3nc2-1 + Cc1cnc(CNC(=O)c2c(=O)c3ccc(N4CCCN(C)CC4)nc3n3c2sc2ccccc23)cn1: YES
Cn1ncnc1[C@H]1c2n[nH]c(=O)c3cc(F)cc(c23)N[C@@H]1c1ccc(F)cc1 + Cc1[nH]c2ccc(F)cc2c1-c1nc2c3cccnc3c3ncccc3c2[nH]1: NO
CCc1c2c(nc3ccc(O)cc13)-c1cc3c(c(=O)n1C2)COC(=O)[C@]3(O)CC + CN(C)c1ccc(Nc2c3ccc(NC(=O)CCN4CCCC4)cc3nc3cc(NC(=O)CCN4CCCC4)ccc23)cc1: YES
CCc1c2c(nc3ccc(O)cc13)-c1cc3c(c(=O)n1C2)COC(=O)[C@]3(O)CC + Cc1cnc(CNC(=O)c2c(=O)c3ccc(N4CCCN(C)CC4)nc3n3c2sc2ccccc23)cn1: YES

Then this compound:
input: Identify whether the compound Cc1[nH]c2ccccc2c1CCNCc1ccc(/C=C/C(=O)NO)cc1 + Cc1cnc(CNC(=O)c2c(=O)c3ccc(N4CCCN(C)CC4)nc3n3c2sc2ccccc23)cn1 records viability, T/C below 90%.
output: YES

* * *

# Test system: 777334-354-R2-J4-PDC tumor spheroids with HUVEC/MSC, viability
# assay.notes: Anticancer human tumor 777334-354-R2-J4-PDC cell line growth inhibition [GQUAD];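 also: spheroids exposed to compounds for 7 days before readout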
# condition.details: second compound 0.1 µM; first compound 1 µM; stronger effect = lower value
recorded.endpoint: viability, T/C (%)
# output: bare number, implied unit %

O=C(NO)c1cnc(N2CCN(S(=O)(=O)c3ccc4ccccc4c3)CC2)nc1 + CN(C)c1ccc(Nc2c3ccc(NC(=O)CCN4CCCC4)cc3nc3cc(NC(=O)CCN4CCCC4)ccc23)cc1: 62.3
COc1cccc2c1C(=O)c1c(O)c3c(c(O)c1C2=O)CC(O)(C(=O)CO)CC3OC1CC(N)C(O)C(C)O1 (stereo not given) + CN(C)c1ccc(Nc2c3ccc(NC(=O)CCN4CCCC4)cc3nc3cc(NC(=O)CCN4CCCC4)ccc23)cc1: 47.1
CC1COCCN1c1cc(-c2ccnn2C)c2ccnc(-c3ccn[nH]3)c2n1 (stereo not given) + CN(C)c1ccc(Nc2c3ccc(NC(=O)CCN4CCCC4)cc3nc3cc(NC(=O)CCN4CCCC4)ccc23)cc1: 53.5

input: I'd like to know its viability, T/C. The molecule in question is O=C(c1cc(Cc2n[nH]c(=O)c3ccccc23)ccc1F)N1CCN(C(=O)C2CC2)CC1 + CN(C)c1ccc(Nc2c3ccc(NC(=O)CCN4CCCC4)cc3nc3cc(NC(=O)CCN4CCCC4)ccc23)cc1
output: 92.1

input: I'd like to know its viability, T/C. The molecule in question is COc1cc(C2c3cc4c(cc3C(OC3OC5COC(C)OC5C(O)C3O)C3COC(=O)C23)OCO4)cc(OC)c1O (stereo not given) + Cc1[nH]c2ccc(F)cc2c1-c1nc2c3cccnc3c3ncccc3c2[nH]1
output: 72.1

input: I'd like to know its viability, T/C. The molecule in question is CC1COCCN1c1cc(C2(S(C)(=N)=O)CC2)nc(-c2ccnc3[nH]ccc23)n1 (stereo not given) + CN(C)c1ccc(Nc2c3ccc(NC(=O)CCN4CCCC4)cc3nc3cc(NC(=O)CCN4CCCC4)ccc23)cc1
output: 95.2
